Test Method Notes: Safety index, ratio of IC50 for human HepG2 cells to IC50 for epimastigote stage of Trypanosoma cruzi Y
Type: toxicity, cell-based
Measurement Parameters: HepG2 cells versus epimastigote stage of Trypanosoma cruzi Y, read-out: Ratio IC50
Short version: selectivity ratio at least 30 is Yes, less is No.

[
  {
    "Compound": "N=C(N)c1ccc(OCCCCCOc2ccc(C(=N)N)cc2)cc1 [PENTAMIDINE]",
    "Answer Label": "Yes"
  },
  {
    "Compound": "O=C(Cn1ccnc1[N+](=O)[O-])NCc1ccccc1 [BENZNIDAZOLE]",
    "Answer Label": "Yes"
  },
  {
    "Compound": "Clc1ccc(CNCCNCc2ccc(Cl)cc2Cl)c(Cl)c1",
    "Answer Label": "No"
  },
  {
    "Compound": "COc1ccc(CNCCNCc2ccc(OC)cc2)cc1",
    "Answer Label": "Yes"
  },
  {
    "Compound": "Oc1ccccc1CNCCNCc1ccccc1O",
    "Answer Label": "No"
  },
  {
    "Compound": "O=[N+]([O-])c1ccc(CNCCNCc2ccc([N+](=O)[O-])cc2)cc1",
    "Answer Label": "No"
  }
]

Turning to the following compound.
Problem: Check this compound for selectivity ratio at or above 30: Cl.Cl.c1ccc(CNCCNCc2ccccc2)cc1
Solution: No
